assayed target: D(1B) dopamine receptor (Homo sapiens)
Sequence (P21918 whole entry): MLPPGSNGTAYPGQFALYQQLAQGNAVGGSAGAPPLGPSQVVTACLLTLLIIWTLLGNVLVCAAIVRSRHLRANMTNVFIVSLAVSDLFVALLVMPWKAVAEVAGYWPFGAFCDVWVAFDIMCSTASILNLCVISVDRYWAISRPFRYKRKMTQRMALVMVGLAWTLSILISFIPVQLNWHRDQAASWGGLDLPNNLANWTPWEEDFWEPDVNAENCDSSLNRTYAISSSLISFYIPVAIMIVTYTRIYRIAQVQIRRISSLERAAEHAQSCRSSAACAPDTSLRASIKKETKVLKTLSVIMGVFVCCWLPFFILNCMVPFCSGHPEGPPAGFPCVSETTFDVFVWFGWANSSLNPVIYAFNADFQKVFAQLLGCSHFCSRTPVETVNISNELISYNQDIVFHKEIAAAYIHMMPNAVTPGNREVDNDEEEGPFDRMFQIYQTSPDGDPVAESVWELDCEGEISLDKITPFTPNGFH
measurement protocol: Displacement of [3H]SCH23390 from human dopamine D5 receptor transfected in HEK293 cells after 1 hr by scintillation counting analysis
readout name: Ki (µM)

> print(dat)
                           structure.string  readout.name  unit.info  value.reported
1  C#CC1=CC[C@H](N(CCC)CCCCNC(=O)c2ccc(OCCCc3cn(CCCC)nn3)c(OC)c2)CO1            Ki         µM              48

[1] CCCCn1cc(CCCOc2ccc(C(=O)NCCCCN(CCC)[C@H]3CCc4c(O)cccc4C3)cc2OC)nn1
[2] CCCCn1cc(CCCOc2ccc(C(=O)NCCCCN(CCC)CCc3ccc(O)c4[nH]c(=O)ccc34)cc2OC)nn1
## Input Form: Entry with minimum Ki (choose one): 1 / 2 Please reply using the label of the selected record.
## Output 1

----------
assayed target: D(1A) dopamine receptor (Homo sapiens)
Sequence (P21728 whole entry): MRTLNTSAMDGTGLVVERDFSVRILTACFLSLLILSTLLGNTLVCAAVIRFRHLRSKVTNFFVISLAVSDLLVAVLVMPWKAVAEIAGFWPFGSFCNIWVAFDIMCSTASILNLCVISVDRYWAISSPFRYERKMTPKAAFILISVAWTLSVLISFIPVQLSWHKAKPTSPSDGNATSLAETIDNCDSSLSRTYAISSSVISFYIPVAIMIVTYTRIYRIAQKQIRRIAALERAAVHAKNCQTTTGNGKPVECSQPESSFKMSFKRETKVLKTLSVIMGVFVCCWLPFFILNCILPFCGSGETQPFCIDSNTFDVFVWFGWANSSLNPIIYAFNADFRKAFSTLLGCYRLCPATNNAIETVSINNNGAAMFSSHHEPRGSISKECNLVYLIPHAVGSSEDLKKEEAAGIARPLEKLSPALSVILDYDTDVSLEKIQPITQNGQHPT
measurement protocol: Displacement of [3H]SCH23390 from human dopamine D1 receptor transfected in HEK293 cells after 1 hr by scintillation counting analysis
readout name: Ki (µM)

> print(dat)
                           structure.string  unit.info  value.reported
1  C#CC1=CC[C@@H](N(CCC)CCCCNC(=O)c2ccc(OCCCc3cn(CCCC)nn3)c(OC)c2)CO1         µM             2.6
2  C#CC1=CC[C@H](N(CCC)CCCCNC(=O)c2ccc(OCCCc3cn(CCCC)nn3)c(OC)c2)CO1         µM             3.9

[P] CCCCn1cc(CCCOc2ccc(C(=O)NCCCCN(CCC)CCc3ccc(O)c4[nH]c(=O)ccc34)cc2OC)nn1
[Q] CCCCn1cc(CCCOc2ccc(C(=O)NCCCCN(CCC)[C@H]3CCc4c(O)cccc4C3)cc2OC)nn1
[R] CCCCn1cc(CCCOc2ccc(C(=O)NCCCCN(CCC)[C@@H]3CCc4c(O)cccc4C3)cc2OC)nn1
## Input Rank the items in ascending order with respect to Ki. List the labels, following the order given in the request.
## Output Q, P, R
(Q: 2.9 µM, P: 4.6 µM, R: 23 µM)

----------
assayed target: 5-hydroxytryptamine receptor 2A (Homo sapiens, UniProt P28223)
measurement protocol: Displacement of [3H]ketanserin from human 5-HT2A receptor transfected in HEK293 cells by scintillation counting analysis
pKi: −log10 of the molar value.
readout name: pKi

> print(dat)
                           structure.string  value.reported
1  CCCCn1cc(CCCOc2ccc(C(=O)NCCCCN(CCC)[C@H]3CCc4c(O)cccc4C3)cc2OC)nn1            6.15
2  C#CC1=CC[C@@H](N(CCC)CCCCNC(=O)c2ccc(OCCCc3cn(CCCC)nn3)c(OC)c2)CO1            5.10
3  CCCCn1cc(CCCOc2ccc(C(=O)NCCCCN(CCC)CCc3ccc(O)c4[nH]c(=O)ccc34)cc2OC)nn1            5.44
4  C#CC1=CC[C@H](N(CCC)CCCCNC(=O)c2ccc(OCCCc3cn(CCCC)nn3)c(OC)c2)CO1            4.85
5  C#CC1=CC[C@@H](N(CCC)CCCCNC(=O)c2ccc(-c3ccccc3)cc2)CC1            5.05

[I] CCCCn1cc(CCCOc2ccc(C(=O)NCCCCN(CCC)[C@@H]3CCc4c(O)cccc4C3)cc2OC)nn1
[II] C#CC1=CC[C@H](N(CCC)CCCCNC(=O)c2ccc(-c3ccccc3)cc2)CC1
## Input Form: Entry with minimum pKi (choose one): I / II Please reply using the label of the selected record.
## Output II

----------
assayed target: D(2) dopamine receptor (Homo sapiens)
measurement protocol: Intrinsic activity at human dopamine D2S receptor expressed in HEK293 cells co-transfected with Galphai2 assessed as [35S]GTPgammaS binding after 30 mins by [35S]GTPgammaS incorporation assay
Type: functional, cell-based
pEC50: −log10 of the molar value.
readout name: pEC50

[P] C#CC1=CC[C@H](N(CCC)CCCCNC(=O)c2ccc(OCCCc3cn(CCCC)nn3)c(OC)c2)CO1
[Q] CCCCn1cc(CCCOc2ccc(C(=O)NCCCCN(CCC)[C@H]3CCc4c(O)cccc4C3)cc2OC)nn1
[R] CCCCn1cc(CCCOc2ccc(C(=O)NCCCCN(CCC)CCc3ccc(O)c4[nH]c(=O)ccc34)cc2OC)nn1
[S] C#CC1=CC[C@@H](N(CCC)CCCCNC(=O)c2ccc(OCCCc3cn(CCCC)nn3)c(OC)c2)CO1
## Input Let's sort these by pEC50, smallest first. Go ahead? List the labels, following the order given in the request.
## Output P, R, S, Q
(P: 5.54, R: 5.77, S: 6.18, Q: 8.40)

----------
assayed target: D(2) dopamine receptor (Homo sapiens, UniProt P14416)
Sequence (P14416 whole entry): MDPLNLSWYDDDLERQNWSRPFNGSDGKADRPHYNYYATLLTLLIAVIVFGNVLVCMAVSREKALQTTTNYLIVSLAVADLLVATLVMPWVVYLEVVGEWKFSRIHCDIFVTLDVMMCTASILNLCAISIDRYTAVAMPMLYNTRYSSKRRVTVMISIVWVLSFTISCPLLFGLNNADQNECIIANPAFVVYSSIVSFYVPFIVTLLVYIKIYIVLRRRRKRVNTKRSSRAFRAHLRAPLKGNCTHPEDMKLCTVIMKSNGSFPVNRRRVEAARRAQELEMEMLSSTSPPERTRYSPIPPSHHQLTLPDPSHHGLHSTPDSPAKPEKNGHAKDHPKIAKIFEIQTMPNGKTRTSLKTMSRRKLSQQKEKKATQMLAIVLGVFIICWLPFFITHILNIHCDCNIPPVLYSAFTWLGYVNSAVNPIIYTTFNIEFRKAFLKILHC
measurement protocol: Intrinsic activity at human dopamine D2S receptor expressed in HEK293 cells co-transfected with Galpha0i assessed as [35S]GTPgammaS binding after 30 mins by [35S]GTPgammaS incorporation assay relative to quinpirole
Assay type: functional, cell-based
readout name: Emax (%)

> print(dat)
                           structure.string  value.reported
1  C#CC1=CC[C@@H](N(CCC)CCCCNC(=O)c2ccc(-c3ccccc3)cc2)CC1             104

[P] C#CC1=CC[C@H](N(CCC)CCCCNC(=O)c2ccc(OCCCc3cn(CCCC)nn3)c(OC)c2)CO1
[Q] CCCCn1cc(CCCOc2ccc(C(=O)NCCCCN(CCC)[C@@H]3CCc4c(O)cccc4C3)cc2OC)nn1
## Input Hi, I'm comparing P with Q and wondering which one has the bigger number for Emax. Any idea? Please reply using the label of the selected record.
## Output P

----------
assayed target: D(2) dopamine receptor (Homo sapiens, UniProt P14416)
measurement protocol: Intrinsic activity at human dopamine D2L receptor expressed in HEK293 cells co-transfected with Galphai2 assessed as [35S]GTPgammaS binding after 30 mins by [35S]GTPgammaS incorporation assay
Format: functional, cell-based
readout name: EC50 (µM)

> print(dat)
                           structure.string  readout.name  value.reported
1  C#CC1=CC[C@@H](N(CCC)CCCCNC(=O)c2ccc(OCCCc3cn(CCCC)nn3)c(OC)c2)CO1          EC50           0.028
2  CCCCn1cc(CCCOc2ccc(C(=O)NCCCCN(CCC)CCc3ccc(O)c4[nH]c(=O)ccc34)cc2OC)nn1          EC50             7.3

[a] CCCCn1cc(CCCOc2ccc(C(=O)NCCCCN(CCC)[C@H]3CCc4c(O)cccc4C3)cc2OC)nn1
[b] C#CC1=CC[C@H](N(CCC)CCCCNC(=O)c2ccc(OCCCc3cn(CCCC)nn3)c(OC)c2)CO1
## Input Form: Entry with minimum EC50 (choose one): a / b Please reply using the label of the selected record.
## Output a
